Recorded values, source ChEMBL document CHEMBL1240366.

test: Clearance in monkey at 1 mg/kg, iv administered as single dose after 24 hrs by liquid chromatography-mass spectroscopy; format: ADME, organism-based, Macaca mulatta; set-up: dose 1 mg/kg, route intravenous; details: rhesus monkey, in vivo
assayMetric: clearance

Q: Could you tell me which clearance is on file for CN1CCN(c2cccc3nc(CN(C)[C@H]4CCCc5cccnc54)c(CO)n23)CC1 ?
A: 0.348 L/h/kg

###

test: Oral bioavailability in mouse at 3 mg/kg administered as single dose after 24 hrs by liquid chromatography-mass spectroscopy; assay type: ADME, organism-based; settings: in vivo
assayMetric: bioavailability (%)
Give bare numbers, in %.

Q: Query (molecule): CN1CCN(c2cccc3nc(CN(C)[C@H]4CCCc5cccnc54)c(CO)n23)CC1 ; field requested: bioavailability
A: 10

###

test: Volume of distribution at steady state in mouse at 1 mg/kg, iv administered as single dose after 24 hrs by liquid chromatography-mass spectroscopy; format: ADME, organism-based; set-up: dose 1 mg/kg, route intravenous; conditions: in vivo, read-out: Vdss
assayMetric: Vd (L/kg)
One number for each entry, in L/kg.

Q: For the molecule shown here, CN1CCN(c2cccc3nc(CN(C)[C@H]4CCCc5cccnc54)c(CO)n23)CC1 , give the reported Vd.
A: 4.2

###

system: Human immunodeficiency virus 1; experiment: Antiviral activity against HIV1 3B infected in human HOS cells after 72 hrs by luminescence assay; assay type: functional, organism-based; conditions: Human immunodeficiency virus 1, 3B
assayMetric: IC50 (nM)
Answers are plain numbers, in nM.

Q: Quick one: IC50 of CN1CCN(c2cccc3nc(CN(C)[C@H]4CCCc5cccnc54)c(CO)n23)CC1 ?
A: 1.5

###

assay: Half life in dog at 3 mg/kg, po administered as single dose by liquid chromatography-mass spectroscopy; format: ADME, organism-based, Canis lupus familiaris; parameters: dose 3 mg/kg, route oral; conditions: in vivo
assayMetric: half-life

Q: Form field: reported half-life of CN1CCN(c2cccc3nc(CN(C)[C@H]4CCCc5cccnc54)c(CO)n23)CC1
A: > 720 min

###

experiment: Volume of distribution at steady state in dog at 1 mg/kg, iv administered as single dose after 24 hrs by liquid chromatography-mass spectroscopy; assay type: ADME, organism-based, Canis lupus familiaris; parameters: dose 1 mg/kg, route intravenous; conditions: in vivo, read-out: Vdss
assayMetric: Vd
Number plus unit, in that order.

Q: Please report the recorded Vd for CN1CCN(c2cccc3nc(CN(C)[C@H]4CCCc5cccnc54)c(CO)n23)CC1 .
A: 5.3 L/kg

###

tested on: Human immunodeficiency virus 1; assay: Antiviral activity against HIV1 isolate 05-121775 assessed as inhibition of viral replication after 7 days by scintillation counting; format: functional, organism-based; settings: Human immunodeficiency virus 1, isolate 05-121775, 168 h
assayMetric: IC50 (nM)
One number for each entry, in nM.

Q: Give its IC50 value. Item: CN1CCN(c2cccc3nc(CN(C)[C@H]4CCCc5cccnc54)c(CO)n23)CC1
A: 1

###

experiment: Half life in mouse at 3 mg/kg, po administered as single dose by liquid chromatography-mass spectroscopy; format: ADME, organism-based; set-up: dose 3 mg/kg, route oral; settings: in vivo
assayMetric: half-life
Units required after the number.

Q: Which measured half-life value corresponds to CN1CCN(c2cccc3nc(CN(C)[C@H]4CCCc5cccnc54)c(CO)n23)CC1 ?
A: 246 min
